Hi there, I'd appreciate the recorded GI50 for every entry that follows.
System: CAKI-1 renal
Assay: NCI tumour cell line growth inhibition, 48 h

# input Recall the reported GI50 of `CC(=O)Oc1ccc(Nc2c3ccccc3nc3ccccc23)cc1` on CAKI-1 renal and write it down.
# output 1.21 µM

# input Recall the reported GI50 of Cc1c(C2Nc3ccccc3C2C)[nH]c2ccccc12 (stereo unspecified) on CAKI-1 renal and write it down.
# output 2.45 µM

# input Recall the reported GI50 of `Cc1cn2c(/C=C3/C(=O)Nc4ccccc43)c(-c3ccc(Cl)cc3)nc2s1` on CAKI-1 renal and write it down.
# output 12.1 µM

# input Recall the reported GI50 of `Nc1ccncc1/C=C1/C(=O)Nc2ccccc21` on CAKI-1 renal and write it down.
# output 30.2 µM

# input Recall the reported GI50 of `Cc1ccc(Nc2nc(N)c(C(=O)c3ccc(C#N)cc3)s2)cc1` on CAKI-1 renal and write it down.
# output 0.402 µM

# input Recall the reported GI50 of `O=C(N/N=C\c1cc(Br)ccc1O)c1ccncc1` on CAKI-1 renal and write it down.
# output 1.04 µM

# input Recall the reported GI50 of `COc1ccc(-n2cc(-c3ccc(Cl)c(Cl)c3)nc2SCc2cccc(C#N)c2)cc1` on CAKI-1 renal and write it down.
# output 18 µM

# input Recall the reported GI50 of `O=C1c2ccn(CCCCNC(CO)(CO)CO)c2C(=O)c2c1c(O)c1ccccc1c2O` on CAKI-1 renal and write it down.
# output 0.808 µM

# input Recall the reported GI50 of `COc1cc(/C=C2\C(=O)Nc3ccc(F)cc32)cc(OC)c1OC` on CAKI-1 renal and write it down.
# output 15.8 µM

# input Recall the reported GI50 of `Cc1cc(NC(=O)c2ccc(C)c(Nc3nccc(-c4cccnc4)n3)c2)cc(-n2cnc(C)c2)c1` on CAKI-1 renal and write it down.
# output 2.18 µM

# input Recall the reported GI50 of `Cc1ccc(N(CSc2ccc(Cl)cc2)CSc2ccc(Cl)cc2)cc1` on CAKI-1 renal and write it down.
# output 0.829 µM

====

Tested on: HT29 colon
Assay: NCI tumour cell line growth inhibition, 48 h
assayMetric: TGI

# input Provide TGI value for the following compound: `CCOC(=O)c1[nH]c(COC(C)=O)c(CCCOC(C)=O)c1CCCOC(C)=O`
# output > 100 µM

# input Provide TGI value for the following compound: CSC1(CC(=O)N(C)C)C(=O)Nc2ccccc21 (stereo unspecified)
# output > 100 µM

# input Provide TGI value for the following compound: COC(=O)C1OC(Oc2cc(O)c3c(=O)cc(-c4ccc(O)cc4)oc3c2)C(O)C(O)C1O (stereo unspecified)
# output > 100 µM

# input Provide TGI value for the following compound: `COc1ccccc1NC(=O)C1=C(C)NC(C)=C(C(=O)Nc2ccccc2OC)C1c1ccc([N+](=O)[O-])cc1`
# output > 100 µM

# input Provide TGI value for the following compound: `CN(C)C(=O)NCCN1CCCCCc2ccccc21`
# output > 100 µM

# input Provide TGI value for the following compound: `O=C(O)Cc1c(O)ccc2ccccc12`
# output > 100 µM

# input Provide TGI value for the following compound: `O=C(O)c1cccc(OCCO)c1`
# output > 100 µM

# input Provide TGI value for the following compound: `Cc1cccc(/C=N/NC(=S)NCCc2ccccn2)n1`
# output > 100 µM

# input Provide TGI value for the following compound: COc1ccc(C(=O)C(CO)Oc2ccccc2OC)cc1OC (stereo unspecified)
# output > 100 µM

# input Provide TGI value for the following compound: COc1cc(NC(C)CCCN)c2nccc(C)c2c1OC (stereo unspecified)
# output 20.9 µM

# input Provide TGI value for the following compound: `CC(=O)Oc1ccccc1C(=O)N=C1[Se]CCN1C(=O)c1ccccc1OC(C)=O`
# output 4.46 µM

====

System: MOLT-4 leukemia
Experiment: NCI tumour cell line growth inhibition, 48 h
Hi there, I'd appreciate the recorded TGI for every entry that follows.
Just the number in µM, nothing appended.

# input Provide TGI value for the following compound: `c1cc(-c2ncc(-c3ccc4c(c3)CCCO4)o2)ccn1`
# output 17.3

# input Provide TGI value for the following compound: `CCN(CC)CCOc1ccc(/C(=C(\C)c2ccc(F)c(OC)c2)c2ccc(Cl)cc2)cc1`
# output 6.86

# input Provide TGI value for the following compound: `Cc1cc(C)cc(C(=N)c2ccccc2Cc2cccc3ccccc23)c1`
# output 30.8

# input Provide TGI value for the following compound: `COc1cc(/C=C2\C[C@H]3[C@@H]4CC=C5C[C@@H](O)CC[C@]5(C)[C@H]4CC[C@]3(C)C2=O)cc(OC)c1OC`
# output 68.4

# input Provide TGI value for the following compound: `CC(=O)c1sc2c(c1OC(=O)c1cccs1)c(=O)n(-c1ccccc1)c(=S)n2-c1ccccc1`
# output 60.8

# input Provide TGI value for the following compound: CC(=O)OCC1OC([S-])C(OC(C)=O)C(OC(C)=O)C1OC(C)=O.CC[PH+](CC)CC.CC[PH+](CC)CC.[Au].[Au] (configuration not stated)
# output 0.52

# input Provide TGI value for the following compound: `O=C(CCCN1CC=C(n2c(=O)[nH]c3ccccc32)CC1)c1ccc(F)cc1`
# output 91.8

# input Provide TGI value for the following compound: CN(C)C1=Nc2ccccc2C(=S)N2CSCC12 (configuration not stated)
# output 54.1

# input Provide TGI value for the following compound: `Cc1sc2nc(NCCc3c[nH]c4ccc(Cl)cc34)[nH]c(=O)c2c1C`
# output 7.27

# input Provide TGI value for the following compound: `c1ccc2c3ccn4cc5c(cc4c-3nc2c1)CCCC5`
# output 12.5

# input Provide TGI value for the following compound: N#CC1(C2SCCS2=O)C2=C(C(=O)c3ccccc3C2=O)N2CCCC21 (configuration not stated)
# output 19.7

# input Provide TGI value for the following compound: `CCOC(=O)C1(C(=O)OCC)CN(CC)CN(c2ccccc2)C1`
# output 40.4

# input Provide TGI value for the following compound: `Cc1cn2c(/C=C3/C(=O)Nc4ccccc43)c(-c3ccc(Cl)cc3)nc2s1`
# output 47.4

# input Provide TGI value for the following compound: CCCCCC(C[N+]1(C)CCOCC1)C(=O)/C=C/c1ccccc1 (configuration not stated)
# output 27.4

# input Provide TGI value for the following compound: CCOC(=O)C(N)CSC(=O)NC (configuration not stated)
# output 215

# input Provide TGI value for the following compound: CC(=O)OCC1OC(Nc2ncc(-c3ccc(C)cc3)s2)C(OC(C)=O)C(OC(C)=O)C1OC(C)=O (configuration not stated)
# output 65.3

# input Provide TGI value for the following compound: `COc1c(C)c2c(c(C)c1Cl)Oc1c(C=O)c(O)c(Cl)c(C)c1C(=O)O2`
# output 65.2

# input Provide TGI value for the following compound: `CC(=O)c1csc2c1C(=O)c1scc(C(C)=O)c1C2=O`
# output 1.13

====

Tested on: HCT-116 colon
Experiment: NCI tumour cell line growth inhibition, 48 h
Hi there, I'd appreciate the recorded TGI for every entry that follows.
Just the number in µM, nothing appended.

# input Provide TGI value for the following compound: `C#CC(=O)Nc1cccc(Nc2nc3c(c(NCc4ccccc4)n2)CCCC3)c1`
# output 0.291

# input Provide TGI value for the following compound: CCOC(=O)CC1c2ccc(O)cc2OC(=O)C1c1ccc([N+](=O)[O-])cc1 (stereo not given)
# output 82.3

# input Provide TGI value for the following compound: C/C(=C1/CCCC2(N=NCC2c2ccccc2)C1=O)c1ccccc1 (stereo not given)
# output 53.3

# input Provide TGI value for the following compound: `Clc1ccc(-c2c(C3=NCCN3)nnn2-c2ccc(Cl)cc2)cc1`
# output 32.3

# input Provide TGI value for the following compound: O=C1/C(=C\c2ccc([N+](=O)[O-])o2)SC2N=C(COc3ccc(Cl)cc3)NN12 (stereo not given)
# output 14.5

====

System: BT-549 breast
Test: NCI tumour cell line growth inhibition, 48 h
assayMetric: TGI

# input Provide TGI value for the following compound: `O=c1cc(-c2ccccc2)[nH]c2cc3c(cc12)OCO3`
# output > 100 µM

# input Provide TGI value for the following compound: `O=C1NC(=O)C(c2c[nH]c3cc(Br)ccc23)=C1c1cn(C(c2ccccc2)(c2ccccc2)c2ccccc2)cn1`
# output 38.8 µM

# input Provide TGI value for the following compound: `NC(=O)C(=CNc1nc(-c2ccc(Cl)c(Cl)c2)cs1)C(N)=O`
# output > 100 µM

# input Provide TGI value for the following compound: `O=C1/C(=C\c2cccn2Cc2ccccc2)c2ccccc2N1c1c(Cl)cccc1Cl`
# output > 100 µM

# input Provide TGI value for the following compound: `COc1cc2cn3c4ccc(O)cc4[nH]c(=O)c3c2cc1OC`
# output 2.26 µM

# input Provide TGI value for the following compound: `Cc1ccc(N(CSc2ccc(Cl)cc2)CSc2ccc(Cl)cc2)cc1`
# output 1.54 µM

# input Provide TGI value for the following compound: `COc1cccc(CCn2c(N)c(-c3ccccc3)c3ccc([N+](=O)[O-])cc3c2=O)c1`
# output 4.3 µM

# input Provide TGI value for the following compound: `CC1(C)c2ccccc2C(=O)C12CCC(=O)CC2`
# output > 100 µM

# input Provide TGI value for the following compound: COc1ccc2c(c1C)C(=O)C(O)(CC=C(C)C)O2 (stereo unspecified)
# output > 100 µM

# input Provide TGI value for the following compound: `O=C(O)Cc1c(O)ccc2ccccc12`
# output > 100 µM

# input Provide TGI value for the following compound: `CC(=O)N(C(=O)CC(=O)N/N=C\c1ccc(Br)c(N(CCC#N)CCC#N)c1)c1ccc(Cl)cc1`
# output > 100 µM
